Target: various mutants of kinase EGFR (BaF3 cell lines stably transfected with kinase) (Homo sapiens, UniProt P00533, C797S/L858R/T790M)
Construct: expressed in transfected cells; host or cells: BaF3
Sequence (P00533 25-1210 T790M/C797S/L858R): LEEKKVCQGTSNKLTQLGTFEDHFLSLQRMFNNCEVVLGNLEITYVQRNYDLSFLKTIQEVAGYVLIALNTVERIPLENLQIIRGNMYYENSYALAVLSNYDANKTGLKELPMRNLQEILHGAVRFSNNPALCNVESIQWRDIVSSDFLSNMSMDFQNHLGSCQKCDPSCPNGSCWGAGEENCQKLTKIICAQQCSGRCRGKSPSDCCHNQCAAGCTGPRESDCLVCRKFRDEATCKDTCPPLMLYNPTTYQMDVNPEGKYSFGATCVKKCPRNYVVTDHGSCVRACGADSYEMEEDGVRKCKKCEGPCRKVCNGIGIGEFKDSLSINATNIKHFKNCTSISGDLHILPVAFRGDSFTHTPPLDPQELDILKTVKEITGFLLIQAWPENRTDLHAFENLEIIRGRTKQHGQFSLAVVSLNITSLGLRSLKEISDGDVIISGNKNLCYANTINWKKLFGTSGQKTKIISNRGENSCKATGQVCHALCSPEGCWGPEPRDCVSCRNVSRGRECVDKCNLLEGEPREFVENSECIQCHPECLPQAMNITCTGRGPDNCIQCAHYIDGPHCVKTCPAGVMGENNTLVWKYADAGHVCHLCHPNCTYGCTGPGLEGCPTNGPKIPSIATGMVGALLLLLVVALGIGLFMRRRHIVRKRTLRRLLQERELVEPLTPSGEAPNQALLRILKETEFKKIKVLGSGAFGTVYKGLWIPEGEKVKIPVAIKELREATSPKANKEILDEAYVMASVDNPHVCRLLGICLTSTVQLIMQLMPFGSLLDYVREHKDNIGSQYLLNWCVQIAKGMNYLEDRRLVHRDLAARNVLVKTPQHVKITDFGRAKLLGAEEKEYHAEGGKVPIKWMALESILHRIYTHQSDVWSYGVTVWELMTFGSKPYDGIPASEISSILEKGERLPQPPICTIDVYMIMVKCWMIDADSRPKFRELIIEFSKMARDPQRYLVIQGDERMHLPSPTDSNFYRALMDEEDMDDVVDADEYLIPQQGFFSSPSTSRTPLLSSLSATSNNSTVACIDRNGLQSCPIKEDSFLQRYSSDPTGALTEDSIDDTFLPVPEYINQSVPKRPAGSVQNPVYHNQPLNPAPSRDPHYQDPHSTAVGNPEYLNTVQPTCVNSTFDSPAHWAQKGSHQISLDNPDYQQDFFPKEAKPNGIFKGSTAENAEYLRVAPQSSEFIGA
Assay: Growth inhibitory activity of compounds on BaF3 cell lines stably transfected with kinase (MTS, 48 h)
Format: cell-based
Conditions: BaF3 cells stably transfected with EGFR L858R/T790M/C797S, read-out: IC50, growth inhibition, L858R/T790M/C797S
This section presents molecules with their documented IC50 values.

{"Molecule": "CCS(=O)(=O)N(C)c1c(Nc2nc(Nc3cc(CC4CC4)c(N4CCC(N5CCN(C)CC5)CC4)cc3OC)ncc2Cl)ccc2nccnc12", "IC50": "50 to 500 nM"}

Given item COc1cc(N2CCC(N3CCN(C)CC3)CC2)c(Cc2ccccc2)cc1Nc1ncc(Cl)c(Nc2ccc3nccnc3c2N(C)S(C)(=O)=O)n1 , the value recorded as its IC50 is 500 to 2500 nM

Given item COc1cc(N2CCC(N(C)C)C2)c(C)cc1Nc1ncc(Cl)c(Nc2ccc3nccnc3c2N(C)S(C)(=O)=O)n1 (stereo not shown) , the value recorded as its IC50 is ≤ 50 nM

Given item CCc1cc(Nc2ncc(Br)c(Nc3ccc4nccnc4c3N(C3CC3)S(C)(=O)=O)n2)c(OC(F)(F)F)cc1N1CCC(N2CCN(C)CC2)CC1 , the value recorded as its IC50 is 50 to 500 nM

Given item CCc1cc(Nc2ncc(Br)c(Nc3ccc4nccnc4c3N(C)S(=O)(=O)C(F)(F)F)n2)c(OC)nc1N1CCC(N2CCN(C)CC2)CC1 , the value recorded as its IC50 is 50 to 500 nM

Given item CCc1cc(Nc2ncc(OC)c(Nc3ccc4nccnc4c3N(C)S(C)(=O)=O)n2)c(OC)cc1N1CCN(C)CC1 , the value recorded as its IC50 is ≤ 50 nM

Given item COc1cc(N2CCC(N3CCN(C)CC3)CC2)c(CC2CC2)cc1Nc1ncc(Cl)c(Nc2ccc3nccnc3c2N(C)S(C)(=O)=O)n1 , the value recorded as its IC50 is ≤ 50 nM

Given item CCc1cc(Nc2ncc(C(F)(F)F)c(Nc3ccc4nccnc4c3N(C)S(C)(=O)=O)n2)c(OC)cc1N1CCC(N2CCN(C)CC2)CC1 , the value recorded as its IC50 is ≤ 50 nM

Given item COc1cc(N2CCC(N3CCN(C)CC3)CC2)ccc1Nc1ncc(Br)c(Nc2ccc3nccnc3c2N(C2CC2)S(C)(=O)=O)n1 , the value recorded as its IC50 is ≤ 50 nM

Given item COc1cc(N2CCC(N(C)C)C2)c(C)cc1Nc1ncc(Cl)c(Nc2ccc3nccnc3c2N(C2CC2)S(C)(=O)=O)n1 (stereo not shown) , the value recorded as its IC50 is ≤ 50 nM

Given item CCN(c1c(Nc2nc(Nc3cc(C)c(N4CCC(N5CCN(C)CC5)CC4)nc3OC)ncc2Cl)ccc2nccnc12)S(C)(=O)=O , the value recorded as its IC50 is 500 to 2500 nM

Given item CCc1cc(Nc2ncc(Br)c(Nc3ccc4nccnc4c3N(C)S(=O)(=O)CC)n2)c(OC)cc1N1CCC(N(C)C)CC1 , the value recorded as its IC50 is ≤ 50 nM

Given item CCc1cc(Nc2ncc(Cl)c(Nc3ccc4nccnc4c3N(C)S(=O)(=O)C(C)C)n2)c(OC)cc1N1CCC(N(C)C)CC1 , the value recorded as its IC50 is ≤ 50 nM

====

This section presents compounds with their documented pIC50 values.
Target: various mutants of kinase EGFR (BaF3 cell lines stably transfected with kinase) (Homo sapiens, UniProt P00533, T790M, form not given)
Construct: other: BaF3 cells stably transfected with EGFR Δ19Del/T790M; MTS, 48 h; other: BaF3 cell line stably transfected with EGFR Δ19Del/T790M; MTS, 48
Sequence (P00533 with tags, fused parts or gaps DEL746-750/T790M, form open): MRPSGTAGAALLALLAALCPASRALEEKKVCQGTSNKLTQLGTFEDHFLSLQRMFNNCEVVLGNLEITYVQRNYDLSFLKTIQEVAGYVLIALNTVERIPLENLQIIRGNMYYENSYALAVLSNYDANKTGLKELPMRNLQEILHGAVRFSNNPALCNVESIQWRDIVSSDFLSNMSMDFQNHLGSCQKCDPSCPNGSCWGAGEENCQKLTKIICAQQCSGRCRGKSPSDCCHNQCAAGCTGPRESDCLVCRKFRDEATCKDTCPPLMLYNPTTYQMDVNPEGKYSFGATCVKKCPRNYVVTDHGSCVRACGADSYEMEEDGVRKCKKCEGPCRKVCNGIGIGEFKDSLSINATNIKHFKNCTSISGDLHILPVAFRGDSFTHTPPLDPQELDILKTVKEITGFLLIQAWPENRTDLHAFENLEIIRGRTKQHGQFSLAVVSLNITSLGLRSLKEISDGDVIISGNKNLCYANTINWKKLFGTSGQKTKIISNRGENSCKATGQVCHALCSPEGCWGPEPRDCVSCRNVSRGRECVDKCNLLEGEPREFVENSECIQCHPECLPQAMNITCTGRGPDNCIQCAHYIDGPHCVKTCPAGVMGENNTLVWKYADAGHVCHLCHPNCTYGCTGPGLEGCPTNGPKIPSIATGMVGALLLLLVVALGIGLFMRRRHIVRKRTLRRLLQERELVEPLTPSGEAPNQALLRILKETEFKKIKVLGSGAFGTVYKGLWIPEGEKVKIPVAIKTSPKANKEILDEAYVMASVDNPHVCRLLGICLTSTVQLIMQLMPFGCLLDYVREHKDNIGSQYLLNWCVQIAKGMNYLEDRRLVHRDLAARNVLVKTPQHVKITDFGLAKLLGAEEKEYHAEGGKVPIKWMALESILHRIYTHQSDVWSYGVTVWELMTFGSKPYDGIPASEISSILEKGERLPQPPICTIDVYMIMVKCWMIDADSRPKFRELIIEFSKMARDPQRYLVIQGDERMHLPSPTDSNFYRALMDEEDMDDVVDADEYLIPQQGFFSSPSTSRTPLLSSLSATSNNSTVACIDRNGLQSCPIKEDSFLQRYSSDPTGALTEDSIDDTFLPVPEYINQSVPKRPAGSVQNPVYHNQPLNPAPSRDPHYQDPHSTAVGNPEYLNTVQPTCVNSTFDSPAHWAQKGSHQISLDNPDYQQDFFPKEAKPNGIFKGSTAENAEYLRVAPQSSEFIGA
Test: Growth inhibitory activity of compounds on BaF3 cell lines stably transfected with kinase (MTS, 48 h)
Assay type: cell-based
Conditions: BaF3 cells stably transfected with EGFR Δ19Del/T790M, read-out: IC50, growth inhibition, Δ19Del/T790M
pIC50: −log10 of the molar value.

Worked set:
{"Compound": "CN(c1c(Nc2nc(NC3CC3)ncc2Br)ccc2nccnc12)S(C)(=O)=O [Compound I-73]", "pIC50": "6.30 to 7.30"}
{"Compound": "CCN(c1c(Nc2nc(Nc3cc(C)c(N4CCC(N(C)C)C4)cc3OC)ncc2Br)ccc2nccnc12)S(C)(=O)=O (stereo not shown) [Compound I-302]", "pIC50": "≥ 7.30"}
{"Compound": "CCc1cc(Nc2ncc([N+](=O)[O-])c(Nc3ccc4nccnc4c3N(C)S(C)(=O)=O)n2)c(OC)nc1N1CCC(N2CCN(C)CC2)CC1 [Compound I-190]", "pIC50": "≥ 7.30"}
{"Compound": "CCc1cc(Nc2ncc(Cl)c(Nc3ccc4nccnc4c3N(C)S(=O)(=O)C(F)(F)F)n2)c(OC)cc1N1CCC(N2CCN(C)CC2)CC1 [Compound I-130]", "pIC50": "≥ 7.30"}
{"Compound": "COc1nc(N2CCC(N3CCN(C)CC3)CC2)ccc1Nc1ncc(Cl)c(Nc2ccc3nccnc3c2N(C2CC2)S(C)(=O)=O)n1 [Compound I-239]", "pIC50": "6.30 to 7.30"}

Then there is this compound:
Given item CCN(c1c(Nc2nc(Nc3cc(C)c(N4CCC(N5CCN(C)CC5)CC4)cc3OC)ncc2Br)ccc2nccnc12)S(C)(=O)=O [Compound I-94] , the value recorded as its pIC50 is ≥ 7.30

====

This section presents molecules with their documented IC50 values.
Biological target: various mutants of kinase EGFR (BaF3 cell lines stably transfected with kinase) (Homo sapiens, UniProt P00533, T790M/C797S, form not given)
Construct: other: BaF3 cells stably transfected with EGFR Δ19Del/T790M/C797S; MTS, 48; other: BaF3 cell line stably transfected with EGFR Δ19Del/T790M/C7
Sequence (P00533 with tags, fused parts or gaps DEL746-750/T790M/C797S, form open): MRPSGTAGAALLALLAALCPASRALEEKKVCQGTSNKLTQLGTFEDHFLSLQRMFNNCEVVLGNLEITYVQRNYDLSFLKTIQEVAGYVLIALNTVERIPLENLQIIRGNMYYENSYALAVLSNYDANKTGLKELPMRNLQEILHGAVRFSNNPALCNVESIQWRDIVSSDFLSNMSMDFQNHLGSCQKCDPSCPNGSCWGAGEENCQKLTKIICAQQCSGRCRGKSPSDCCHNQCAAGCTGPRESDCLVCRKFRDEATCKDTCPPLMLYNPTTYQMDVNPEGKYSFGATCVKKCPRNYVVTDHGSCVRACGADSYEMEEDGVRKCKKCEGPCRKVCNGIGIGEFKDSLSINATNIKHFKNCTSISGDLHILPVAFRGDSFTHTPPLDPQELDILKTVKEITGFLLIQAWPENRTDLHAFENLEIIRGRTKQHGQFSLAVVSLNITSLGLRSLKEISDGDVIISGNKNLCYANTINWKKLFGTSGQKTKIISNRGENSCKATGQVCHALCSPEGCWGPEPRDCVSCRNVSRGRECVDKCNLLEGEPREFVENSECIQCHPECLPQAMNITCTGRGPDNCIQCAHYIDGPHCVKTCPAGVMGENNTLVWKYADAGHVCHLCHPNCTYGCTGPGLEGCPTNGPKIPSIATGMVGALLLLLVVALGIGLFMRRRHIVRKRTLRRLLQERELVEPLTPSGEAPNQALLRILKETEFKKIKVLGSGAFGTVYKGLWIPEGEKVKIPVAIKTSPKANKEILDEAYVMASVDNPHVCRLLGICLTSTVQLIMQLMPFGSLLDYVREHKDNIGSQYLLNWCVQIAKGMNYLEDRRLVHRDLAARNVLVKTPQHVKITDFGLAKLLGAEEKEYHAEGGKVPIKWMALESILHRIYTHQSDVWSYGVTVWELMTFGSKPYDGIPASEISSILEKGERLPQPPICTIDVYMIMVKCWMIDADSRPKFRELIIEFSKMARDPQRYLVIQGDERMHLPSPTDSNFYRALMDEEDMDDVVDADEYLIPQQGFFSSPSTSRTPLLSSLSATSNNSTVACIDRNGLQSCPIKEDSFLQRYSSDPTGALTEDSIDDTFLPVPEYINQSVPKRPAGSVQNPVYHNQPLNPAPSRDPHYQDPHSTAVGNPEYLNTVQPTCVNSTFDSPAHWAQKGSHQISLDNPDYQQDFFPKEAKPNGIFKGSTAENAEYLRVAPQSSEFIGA
Assay: Growth inhibitory activity of compounds on BaF3 cell lines stably transfected with kinase (MTS, 48 h)
Type: cell-based
Details: BaF3 cells stably transfected with EGFR Δ19Del/T790M/C797S, read-out: IC50, growth inhibition, Δ19Del/T790M/C797S

Given item COc1cc(N2CCC(N3CCN(C)CC3)CC2)c(C)cc1Nc1ncc(C#N)c(Nc2ccc3nccnc3c2N(C)S(C)(=O)=O)n1 , the value recorded as its IC50 is 50 to 500 nM

Given item CCc1cc(Nc2ncc(Cl)c(Nc3ccc4nccnc4c3N(C3CC3)S(C)(=O)=O)n2)c(OC(F)(F)F)cc1N1CCC(N2CCN(C)CC2)CC1 , the value recorded as its IC50 is 50 to 500 nM

Given item COc1cc(N2CCC(N3CCN(C)CC3)CC2)c(Cc2ccccc2)cc1Nc1ncc(Br)c(Nc2ccc3nccnc3c2N(C)S(C)(=O)=O)n1 , the value recorded as its IC50 is 500 to 2500 nM

====

Target: various mutants of kinase EGFR (BaF3 cell lines stably transfected with kinase) (Homo sapiens, UniProt P00533)
Construct: other: BaF3 cells stably transfected with EGFR Δ19Del; MTS, 48 h; other: BaF3 cell line stably transfected with EGFR Δ19Del
Sequence (P00533 with tags, fused parts or gaps DEL746-750): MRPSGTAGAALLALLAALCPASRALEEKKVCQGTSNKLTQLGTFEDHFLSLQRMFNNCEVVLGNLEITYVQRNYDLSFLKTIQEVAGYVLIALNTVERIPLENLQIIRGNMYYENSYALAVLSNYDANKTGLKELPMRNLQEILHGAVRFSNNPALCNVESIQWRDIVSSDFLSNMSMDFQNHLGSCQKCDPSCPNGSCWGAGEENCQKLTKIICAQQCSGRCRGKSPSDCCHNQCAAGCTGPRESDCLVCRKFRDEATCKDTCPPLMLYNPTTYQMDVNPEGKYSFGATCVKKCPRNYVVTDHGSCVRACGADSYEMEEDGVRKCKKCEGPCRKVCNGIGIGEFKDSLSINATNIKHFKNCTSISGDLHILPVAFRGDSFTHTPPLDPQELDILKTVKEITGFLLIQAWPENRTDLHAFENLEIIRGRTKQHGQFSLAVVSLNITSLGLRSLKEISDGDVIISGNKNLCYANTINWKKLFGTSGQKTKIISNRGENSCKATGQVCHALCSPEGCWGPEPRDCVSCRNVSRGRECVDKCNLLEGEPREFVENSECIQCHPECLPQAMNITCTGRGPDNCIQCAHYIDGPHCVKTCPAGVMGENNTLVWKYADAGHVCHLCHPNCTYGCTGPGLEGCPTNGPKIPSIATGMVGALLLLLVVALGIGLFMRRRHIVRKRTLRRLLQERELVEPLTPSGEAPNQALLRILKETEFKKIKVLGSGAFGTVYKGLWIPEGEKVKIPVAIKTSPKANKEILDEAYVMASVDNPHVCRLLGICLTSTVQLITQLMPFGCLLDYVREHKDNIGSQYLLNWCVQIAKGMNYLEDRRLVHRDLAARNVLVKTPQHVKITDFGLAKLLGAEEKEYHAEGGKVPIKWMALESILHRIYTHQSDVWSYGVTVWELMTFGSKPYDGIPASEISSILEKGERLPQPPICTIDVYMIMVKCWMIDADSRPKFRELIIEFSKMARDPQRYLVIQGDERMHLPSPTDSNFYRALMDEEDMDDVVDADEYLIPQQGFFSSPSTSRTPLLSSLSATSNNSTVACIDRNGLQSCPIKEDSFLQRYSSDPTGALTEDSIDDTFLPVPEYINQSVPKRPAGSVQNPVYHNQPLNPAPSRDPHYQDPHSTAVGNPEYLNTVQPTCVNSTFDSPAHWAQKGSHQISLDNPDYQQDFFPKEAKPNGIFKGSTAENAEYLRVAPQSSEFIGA
Assay: Growth inhibitory activity of compounds on BaF3 cell lines stably transfected with kinase (MTS, 48 h)
Format: cell-based
Conditions: BaF3 cells stably transfected with EGFR Δ19Del, read-out: IC50, growth inhibition, Δ19Del
pIC50: −log10 of the molar value.
This section presents molecules with their documented pIC50 values.

Worked set:
{"Molecule": "COc1ccc(C(=O)N2CCN(C)CC2)cc1Nc1ncc(Br)c(Nc2ccc3nccnc3c2N(C)S(C)(=O)=O)n1", "Endpoint Name": "pIC50", "Result Value": "6.30 to 7.30"}
{"Molecule": "CCc1cc(Nc2ncc(Cl)c(Nc3ccc4nccnc4c3N(C)S(=O)(=O)CC)n2)c(OC(F)(F)F)cc1N1CCC(N2CCN(C)CC2)CC1", "Endpoint Name": "pIC50", "Result Value": "6.30 to 7.30"}
{"Molecule": "COc1cc(N2CCC(N3CCN(C)CC3)CC2)c(C(C)C)cc1Nc1ncc(Br)c(Nc2ccc3nccnc3c2N(C)S(C)(=O)=O)n1", "Endpoint Name": "pIC50", "Result Value": "6.30 to 7.30"}
{"Molecule": "CCN(c1c(Nc2nc(Nc3cc(C)c(N4CCC(N5CCN(C)CC5)CC4)nc3OC)ncc2Br)ccc2nccnc12)S(C)(=O)=O", "Endpoint Name": "pIC50", "Result Value": "5.60 to 6.30"}
{"Molecule": "C=Cc1cc(Nc2ncc(Br)c(Nc3ccc4nccnc4c3N(C)S(=O)(=O)C(F)(F)F)n2)c(OC(F)(F)F)cc1N1CCC(N2CCN(C)CC2)CC1", "Endpoint Name": "pIC50", "Result Value": "5.60 to 6.30"}

Given item CCc1cc(Nc2ncc(Br)c(Nc3ccc4nccnc4c3N(C)S(=O)(=O)C(F)(F)F)n2)c(OC)cc1N1CCC(N(C)C)C1 (stereo not shown) , the value recorded as its pIC50 is 5.60 to 6.30

Given item CCc1cc(Nc2ncc(Br)c(Nc3ccc4nccnc4c3N(C)S(=O)(=O)C(C)C)n2)c(OC)cc1N1CCC(N2CCN(C)CC2)CC1 , the value recorded as its pIC50 is 6.30 to 7.30

Given item COc1cc(N2CCC(N3CCN(C)CC3)CC2)c(CC2CC2)cc1Nc1ncc([N+](=O)[O-])c(Nc2ccc3nccnc3c2N(C)S(C)(=O)=O)n1 , the value recorded as its pIC50 is 6.30 to 7.30

Given item CCc1cc(Nc2ncc(Br)c(Nc3ccc4nccnc4c3N(C)S(C)(=O)=O)n2)c(OC)cc1N1CCC(N2CCN(C)CC2)CC1 , the value recorded as its pIC50 is ≥ 7.30

Given item CCN(c1c(Nc2nc(Nc3cc(CC4CC4)c(N4CCC(N5CCN(C)CC5)CC4)cc3OC)ncc2Br)ccc2nccnc12)S(C)(=O)=O , the value recorded as its pIC50 is ≥ 7.30

Given item CCc1cc(Nc2ncc(Br)c(Nc3ccc4nccnc4c3N(C)S(=O)(=O)CC)n2)c(OC)cc1N1CCC(N2CCN(C)CC2)CC1 , the value recorded as its pIC50 is ≥ 7.30

Given item Cc1cc2c(cc1Nc1ncc(Br)c(Nc3ccc4nccnc4c3N(C)S(C)(=O)=O)n1)CN(C)CC2 , the value recorded as its pIC50 is 6.30 to 7.30

Given item CCc1cc(Nc2ncc(Cl)c(Nc3ccc4nccnc4c3N(CC)S(C)(=O)=O)n2)c(OC)cc1N1CCC(N2CCN(C)CC2)CC1 , the value recorded as its pIC50 is ≥ 7.30
